Origin of values: patent US20230391739A1

# target entity: mouse TRPM3α2 (mTRPM3) ion channel (Mus musculus, UniProt J9SQF3)
# Sequence (J9SQF3 1-1709 isoform J9SQF3-12): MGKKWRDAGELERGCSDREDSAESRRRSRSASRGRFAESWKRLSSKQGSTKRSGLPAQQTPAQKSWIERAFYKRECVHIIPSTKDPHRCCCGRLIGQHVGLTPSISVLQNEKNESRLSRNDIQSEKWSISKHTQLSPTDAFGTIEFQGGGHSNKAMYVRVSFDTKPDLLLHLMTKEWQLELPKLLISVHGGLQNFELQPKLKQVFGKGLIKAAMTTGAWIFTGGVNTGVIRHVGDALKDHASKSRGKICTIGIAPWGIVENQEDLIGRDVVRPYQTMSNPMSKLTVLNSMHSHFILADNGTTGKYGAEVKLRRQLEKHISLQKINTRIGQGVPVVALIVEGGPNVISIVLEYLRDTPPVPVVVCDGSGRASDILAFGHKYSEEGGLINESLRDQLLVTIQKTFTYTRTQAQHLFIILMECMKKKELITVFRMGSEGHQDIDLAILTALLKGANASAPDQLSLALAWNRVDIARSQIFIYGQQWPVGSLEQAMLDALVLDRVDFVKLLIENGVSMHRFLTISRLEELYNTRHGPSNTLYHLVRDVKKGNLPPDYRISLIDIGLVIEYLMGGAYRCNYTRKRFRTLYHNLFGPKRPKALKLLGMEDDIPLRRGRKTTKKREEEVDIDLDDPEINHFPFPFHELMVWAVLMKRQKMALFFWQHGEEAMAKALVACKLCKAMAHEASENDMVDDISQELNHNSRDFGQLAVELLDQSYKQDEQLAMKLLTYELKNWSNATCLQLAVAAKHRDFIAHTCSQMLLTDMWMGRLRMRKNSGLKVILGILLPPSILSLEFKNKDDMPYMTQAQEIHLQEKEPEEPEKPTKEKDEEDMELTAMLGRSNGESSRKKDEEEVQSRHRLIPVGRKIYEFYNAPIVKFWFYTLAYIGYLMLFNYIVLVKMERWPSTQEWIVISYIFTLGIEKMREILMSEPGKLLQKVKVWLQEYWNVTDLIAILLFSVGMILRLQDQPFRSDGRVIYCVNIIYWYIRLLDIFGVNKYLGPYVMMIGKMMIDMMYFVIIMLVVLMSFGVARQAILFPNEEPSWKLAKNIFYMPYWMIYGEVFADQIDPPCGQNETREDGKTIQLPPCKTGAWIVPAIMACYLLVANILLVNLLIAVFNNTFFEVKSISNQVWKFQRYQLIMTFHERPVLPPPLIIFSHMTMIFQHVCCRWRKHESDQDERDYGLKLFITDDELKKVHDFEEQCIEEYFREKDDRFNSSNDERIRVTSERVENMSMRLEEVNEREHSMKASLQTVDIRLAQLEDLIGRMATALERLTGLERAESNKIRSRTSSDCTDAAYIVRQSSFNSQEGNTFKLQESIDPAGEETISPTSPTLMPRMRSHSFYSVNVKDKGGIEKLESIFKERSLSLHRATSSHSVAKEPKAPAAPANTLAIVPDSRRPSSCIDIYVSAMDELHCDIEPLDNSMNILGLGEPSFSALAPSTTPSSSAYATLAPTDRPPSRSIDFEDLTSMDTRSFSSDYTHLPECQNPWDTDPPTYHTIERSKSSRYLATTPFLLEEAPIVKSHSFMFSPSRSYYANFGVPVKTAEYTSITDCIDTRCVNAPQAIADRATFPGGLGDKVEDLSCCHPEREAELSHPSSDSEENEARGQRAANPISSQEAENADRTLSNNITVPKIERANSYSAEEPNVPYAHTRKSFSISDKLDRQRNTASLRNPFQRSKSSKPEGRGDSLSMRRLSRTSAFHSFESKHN
# assay procedure: TRPM3 ion channel driven Ca2+ uptake, Fluo-4 AM assay, PS-stimulated (mTRPM3)
# condition details: TRPM3 overexpressing flip-in HEK293 cells stimulated with Pregnenolone sulfate (PS) 50 μM, activity ranges A, B, C
Please go through the items and note down their IC50.

IC50 lookup needed for `Cc1oc2ccc(OCc3ccccc3Cl)cc2c1C(=O)O` , thanks.
1 to 20 µM

IC50 lookup needed for `CNC(=O)[C@@H]1C[C@@H](NC(=O)c2c(C)oc3ccc(OCc4ccccc4)cc23)CN1` , thanks.
1 to 20 µM

IC50 lookup needed for Cc1oc2c(Cl)cc(OCc3ccccc3)cc2c1C(=O)NC1CNCC1(F)F (single isomer, unassigned) [Cpd 304-En 2] , thanks.
> 20 µM

IC50 lookup needed for `Cc1oc2ccc(OCc3ccccc3)cc2c1C(=O)N1CC[C@@H](N(C)C)C1` , thanks.
> 20 µM

IC50 lookup needed for Cc1oc2ccc(OCc3ccccc3)cc2c1C(=O)NCC1CCNC1 (stereo not drawn) , thanks.
1 to 20 µM

IC50 lookup needed for `CCc1oc2ccc(OCc3cccc(F)c3)cc2c1C(=O)NC1CCN(C)CC1` , thanks.
1 to 20 µM

IC50 lookup needed for `Cc1oc2ccc(OCc3ccccc3)cc2c1C(=O)NCc1ccncc1` , thanks.
1 to 20 µM

IC50 lookup needed for Cc1oc2cc(Cl)c(OCc3ccccc3)cc2c1C(=O)NC1CNCC1(F)F (single isomer, unassigned) [Cpd 300-En 1] , thanks.
1 to 20 µM

IC50 lookup needed for `Cc1oc2ccc(OCc3ccc(Cl)cc3)cc2c1C(=O)O` , thanks.
1 to 20 µM
